All values here come from patent US20260306460A1.

Test system: senescent foreskin cells
procedure_summary: Survival of senescent human cells treated with supernatant (secreted fluid) from death-induced cells, Example 13
Format: cell-based
condition_context: Table 8; supernatant from dying senescent cells treated at 30, 90 or 270 μM (as Example 11); senescent treated cells
So I've got a bunch of compounds here, and I need their Survival values.
Just the number.

Task item: For the compound Cc1nnc(-c2cc(C(=O)N3CCC(c4ccc(C#N)cc4)CC3)c(C)cc2C2CCC2)[nH]1 [LX-305] , what Survival is on record?
Reply: 89.5

Task item: Also, C[C@H]1[C@H](C)CC[C@]2(C(=O)O)CC[C@]3(C)C(=CC[C@@H]4[C@@]5(C)C[C@@H](O)[C@H](O)C(C)(C)[C@@H]5CC[C@]43C)[C@H]12 [LX-2002, Corosolic acid] please.
Reply: 58.3

Task item: What do you have for CCOC(=O)[C@@H](N)CCC(=O)N[C@@H](CSCc1ccccc1)C(=O)N[C@@H](C(=O)OCC)c1ccccc1 [LX-2602, Ezatiostat] ?
Reply: 69.5

Task item: Another: CC1(C)CC[C@]2(NC(=O)C(C)(F)F)CC[C@]3(C)[C@H](C(=O)C=C4[C@@]5(C)C=C(C#N)C(=O)C(C)(C)[C@@H]5CC[C@]43C)[C@@H]2C1 [LX-2101, Omaveloxolone]
Reply: 39.7

Task item: And O=C(C(C[N+](=O)[O-])=NO)N1CCN(C(c2ccc(Cl)cc2)c2ccc(Cl)cc2)CC1 [LX-403] ?
Reply: 45.1

Task item: Moving on to the next compound: Cc1nc(-c2nc(-c3ccc(OC(F)(F)F)cc3)no2)nn1Cc1cccc(N2CCC(S(C)(=O)=O)CC2)c1 [LX-3200]
Reply: 54.9

Task item: Same lookup for CCN(CC)C(=S)SSC(=S)N(CC)CC [LX-1601, Disulfiram] , please.
Reply: 81.4

Task item: Can you check Cc1[nH]nc(C(F)(F)F)c1Cc1sc2c(c1C(=O)N1C[C@](C)(O)CO1)c(=O)n(C)c(=O)n2C(C)C [LX-3203] next?
Reply: 57.1

Task item: Another compound to look at: C[N+](C)(C)CCO.C[N+](C)(C)CCO.[SH-].[SH-].[S]=[Mo]=[S] [LX-2601]
Reply: 67.3

Task item: What about CC/C=C\C/C=C\C/C=C\C/C=C\C/C=C\C/C=C\CCC(=O)O [LX-2702, Docosahexaenoic acid] ?
Reply: 68.6

Task item: Now consider C[C@H]1[C@H](C)CC[C@]2(C(=O)O)CC[C@]3(C)C(=CC[C@@H]4[C@@]5(C)CC[C@H](O)C(C)(C)[C@@H]5CC[C@]43C)[C@H]12 [LX-2001, Ursolic acid] and answer again.
Reply: 57.8

Task item: Please answer likewise for CCc1nc(C(N)=O)c(Nc2ccc(N3CCC(N4CCN(C)CC4)CC3)c(OC)c2)nc1NC1CCOCC1 [LX-3303, Gilteritinib]
Reply: 53.5

Task item: Same for O=C(O)c1cc(/N=N/c2ccc(S(=O)(=O)Nc3ccccn3)cc2)ccc1O [LX-1302, Sulfasalazine]
Reply: 98.5

Task item: Same question for CC1(C)C=C2[C@H]3CC[C@@H]4[C@@]5(C)CCC(=O)C(C)(C)[C@@H]5CC[C@@]4(C)[C@]3(C)CC[C@@]2(C(=O)O)CC1 [LX-2007, Moronic acid] please.
Reply: 95.7

Task item: How about this compound: CC1(C)CC[C@]2(C(=O)O)CC[C@]3(C)C(=CC[C@@H]4[C@@]5(C)CC[C@H](O)C(C)(C)[C@@H]5CC[C@]43C)[C@@H]2C1 [LX-2003, Oleanolic acid]
Reply: 64.2

Task item: Now the compound C[C@@H]1CC[C@@]23C[C@H](O)C(=O)[C@@]2(O)[C@]1(C)[C@H](OC(=O)CCl)C[C@@H](C1=CCn2c(=O)n(-c4ccccc4)c(=O)n2C1)[C@@H]3C [LX-1801]
Reply: 41.6

Task item: Try S=C(N/N=C1\CCCc2cccnc21)N1CCN(c2ccccn2)CC1 [LX-801] next.
Reply: 52.7

Task item: Then CO[C@]1(C(=O)N[C@@H](C)c2ccc(-n3cc(F)cn3)nc2)CC[C@H](c2nc(C)cc(Nc3cc(C)[nH]n3)n2)CC1 [LX-1902, Pralsetinib] ?
Reply: 53.4

Task item: Input COC(=O)[C@]12CCC(C)(C)C[C@H]1[C@H]1C(=O)C=C3[C@@]4(C)C=C(C#N)C(=O)C(C)(C)[C@@H]4CC[C@@]3(C)[C@]1(C)CC2 [LX-2102, Bardoxolone methyl]
Reply: 46.3

Task item: For Cc1oncc1C(=O)Nc1ccc(C(F)(F)F)cc1 [LX-1603, Leflunomide] then?
Reply: 97.5

Task item: Input C=C(C)[C@@H]1CC[C@]2(C(=O)O)CC[C@]3(C)[C@H](CC[C@@H]4[C@@]5(C)CC[C@H](O)C(C)(C)[C@@H]5CC[C@]43C)[C@@H]12 [LX-2005, Betulinic acid]
Reply: 91.6

Task item: Note, next up: Fc1ccc(-n2cc(CCCCN3CCC4(CC3)OCc3ccccc34)c3ccccc32)cc1 [LX-1102, Siramesine]
Reply: 52.9

Task item: What would you report for NCC(=O)CCC(=O)O [LX-1103, 5-Aminolevulinic acid] ?
Reply: 101.8

Task item: Here is the next compound: COc1cc(OC)cc(N(CCNC(C)C)c2ccc3ncc(-c4cnn(C)c4)nc3c2)c1 [LX-1903, Erdafitinib]
Reply: 62.8

Task item: Another compound to look at: C[C@H](N)C(=O)N1C[C@H](CCCB(O)O)[C@](N)(C(=O)O)C1 [LX-3107, Numidargistat]
Reply: 62.1
